# targetEntity: VIM-1 (Pseudomonas aeruginosa (strain ATCC 15692 / DSM 22644 / CIP 104116 / JCM 14847 / LMG 12228 / 1C / PRS 101 / PAO1), UniProt A0A0F7KYQ8)
# assayName: biochemical
# assayContext: fluorescence assay, CCF2-FA substrate, 30 pM enzyme, 2 hours at 25° C.; read-out: VIM-1 IC50
pIC50: −log10 of the molar value.
endpointName: pIC50

# compound, number
data = [
    ("Nc1nc2c(-c3ccc(S(=O)(=O)N4CCC[C@H](N)C4)c(S(N)(=O)=O)c3-c3nnn[nH]3)cccc2s1", 8.40),
    ("Nc1ccc2cccc(-c3ccc(S(=O)(=O)N[C@@H]4CCNC4)c(S(N)(=O)=O)c3-c3nn[nH]n3)c2n1", 10.06),
    ("Nc1nc2c(-c3ccc(S(=O)(=O)N[C@@H]4C[C@H]4N)c(S(N)(=O)=O)c3-c3nnn[nH]3)cccc2[nH]1", 9.25),
    ("Nc1nc2c(-c3ccc(S(=O)(=O)N[C@@H](N)c4ccccn4)c(S(N)(=O)=O)c3-c3nnn[nH]3)cccc2s1.O=C(O)C(F)(F)F [Example 99, 2,2,2-trifluoroacetate]", 9.30),
    ("CN(C1CCS(=O)(=O)C1)S(=O)(=O)c1ccc(-c2cccc3sc(N)nc23)c(-c2nnn[nH]2)c1S(N)(=O)=O (stereo not shown)", 8.76),
    ("Nc1ccc(-c2ccc(S(=O)(=O)NC[C@@H]3CCCN3)c(S(N)(=O)=O)c2-c2nn[nH]n2)cn1", 9.68),
    ("Nc1nc2c(-c3ccc(S(=O)(=O)N4CCC[C@@H](N)C4)c(S(N)(=O)=O)c3-c3nnn[nH]3)cccc2s1", 8.43),
    ("Cn1nc2cccc(-c3ccc(S(=O)(=O)N[C@@H]4CCNC4)c(S(N)(=O)=O)c3-c3nn[nH]n3)c2n1", 10.29),
    ("NC[C@H](N)CNS(=O)(=O)c1ccc(-c2cccnc2N)c(-c2nn[nH]n2)c1S(N)(=O)=O", 9.95),
    ("Nc1nc2c(-c3ccc(S(=O)(=O)N[C@H]4CCNC4)c(S(N)(=O)=O)c3-c3nnn[nH]3)cccc2s1", 9.63),
    ("NC[C@H](CO)NS(=O)(=O)c1ccc(-c2ccc(N)nc2)c(-c2nn[nH]n2)c1S(N)(=O)=O", 9.40),
    ("Nc1nc2c(-c3ccc(S(=O)(=O)N[C@H]4CNC[C@@H]4F)c(S(N)(=O)=O)c3-c3nnn[nH]3)cccc2s1", 9.51),
    ("C[C@@H](CCN)NS(=O)(=O)c1ccc(-c2cccc3[nH]c(N)nc23)c(-c2nn[nH]n2)c1S(N)(=O)=O", 9.56),
]

----------
# Tested on: Serratia marcescens expressing IMP-1 (CL5741)
# Assay type: cell-based
# assayContext: IMP-1 strain CL5741, with imipenem 1 μg/ml, 95% inhibition of growth
endpointName: Serratia marcescens MITC95 (µM)

# smilesEntry, endpointName, number
data = [
    ("NCCN1CC[C@H](NS(=O)(=O)c2ccc(-c3cccc4[nH]c(N)nc34)c(-c3nn[nH]n3)c2S(N)(=O)=O)C1", "Serratia marcescens MITC95", 1.563),
    ("NCCCCNS(=O)(=O)c1ccc(-c2cccc3[nH]c(N)nc23)c(-c2nn[nH]n2)c1S(N)(=O)=O", "Serratia marcescens MITC95", 0.7813),
    ("NCCn1nnc2c(-c3ccc(S(=O)(=O)N[C@@H]4CCNC4)c(S(N)(=O)=O)c3-c3nn[nH]n3)cccc21", "Serratia marcescens MITC95", 1.563),
    ("NS(=O)(=O)c1c(S(=O)(=O)N[C@@H]2CCNC2)ccc(-c2cnc3cc[nH]c3c2)c1-c1nn[nH]n1", "Serratia marcescens MITC95", 0.7813),
]
